Tested on: pentylenetetrazole-induced clonic convulsion
Assay: Activity on pentylenetetrazole-induced clonic convulsion (anti-PTZ activity)
Format: in vivo, mouse (Std-ddY male)
Details: Mus musculus; 2 mg/kg oral, 2 hours before pentylenetetrazole 85 mg/kg s.c., observed 30 minutes; read-out: Number of mice having antagonistic activity/number of test mice (converted)
Experimental: Experiment 2 Activity on pentylenetetrazole-induced clonic convulsion (anti-PTZ activity) […] A test compound was administered orally to Std-ddY male mice (weight; 20-25 g, five mice/group). […] When no clonic convulsion was observed, it was determined that the test compound had antagonistic activity.
Readout: responders at 2 mg/kg (%)

* COc1nnc(-c2cc3c([nH]c2=O)CCN(Cc2c(F)ccc(F)c2F)C3)o1 | 100
* COc1nnc(-c2cc3c([nH]c2=O)CCN(Cc2cc(F)ccc2Br)C3)o1 | 80
* COc1nnc(-c2cc3c([nH]c2=O)CCN(Cc2c(F)cccc2F)C3)o1 | 100
* COc1nnc(-c2cc3c([nH]c2=O)CCN(Cc2ccccc2Br)C3)o1 | 60
